Each entry below carries its recorded log10 EC50.
target: Metabotropic glutamate receptor 5 (Rattus norvegicus); assay: Ago-positive allosteric modulation of rat mGlu5 receptor expressed in HEK293 cells by fluorescence-based calcium flux assay
Sequence (P31424 whole entry): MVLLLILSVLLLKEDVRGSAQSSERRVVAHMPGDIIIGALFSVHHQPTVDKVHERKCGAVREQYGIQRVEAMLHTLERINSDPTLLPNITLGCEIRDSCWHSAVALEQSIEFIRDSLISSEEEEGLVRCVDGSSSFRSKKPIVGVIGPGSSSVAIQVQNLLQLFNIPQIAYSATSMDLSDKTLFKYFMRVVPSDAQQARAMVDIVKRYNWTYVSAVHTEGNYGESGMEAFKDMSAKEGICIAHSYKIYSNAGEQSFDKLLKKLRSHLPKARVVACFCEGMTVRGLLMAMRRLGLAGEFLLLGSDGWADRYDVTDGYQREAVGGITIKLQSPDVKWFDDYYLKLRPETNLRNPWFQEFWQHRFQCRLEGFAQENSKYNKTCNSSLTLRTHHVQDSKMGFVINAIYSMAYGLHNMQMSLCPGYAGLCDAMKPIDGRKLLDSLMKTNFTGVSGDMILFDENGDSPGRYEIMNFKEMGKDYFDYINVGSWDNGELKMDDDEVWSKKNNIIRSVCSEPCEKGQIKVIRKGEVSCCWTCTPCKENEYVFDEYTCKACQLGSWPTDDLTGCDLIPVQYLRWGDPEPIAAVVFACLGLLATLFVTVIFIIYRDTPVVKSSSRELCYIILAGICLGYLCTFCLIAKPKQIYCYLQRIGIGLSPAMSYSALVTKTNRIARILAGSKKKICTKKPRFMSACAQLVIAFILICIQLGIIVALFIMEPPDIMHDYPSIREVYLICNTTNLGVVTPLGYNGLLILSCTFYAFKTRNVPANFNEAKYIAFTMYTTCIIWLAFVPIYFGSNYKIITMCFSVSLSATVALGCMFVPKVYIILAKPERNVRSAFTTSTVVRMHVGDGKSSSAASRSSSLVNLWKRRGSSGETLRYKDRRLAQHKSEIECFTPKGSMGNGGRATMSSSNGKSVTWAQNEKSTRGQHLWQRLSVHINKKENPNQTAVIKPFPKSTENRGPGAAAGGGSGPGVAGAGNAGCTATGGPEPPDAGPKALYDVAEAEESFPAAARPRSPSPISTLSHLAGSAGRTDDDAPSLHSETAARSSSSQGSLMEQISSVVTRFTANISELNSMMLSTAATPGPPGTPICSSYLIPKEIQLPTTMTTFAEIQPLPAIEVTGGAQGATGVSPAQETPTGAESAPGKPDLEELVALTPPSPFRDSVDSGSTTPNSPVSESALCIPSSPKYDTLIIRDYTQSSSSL
The base-10 logarithm of EC50, taken with EC50 in µM, is what appears here.

Below, 4 compounds whose answers are already recorded.
Compound: CS(=O)(=O)N1c2ccccc2CCC1C(=O)Nc1ccccn1 (racemic)
Measured Parameter: log10 EC50
Endpoint Value: 0.11

Compound: O=C(Nc1cccc(Cl)c1)[C@@H]1CCc2ccccc2N1S(=O)(=O)c1ccccc1F
Measured Parameter: log10 EC50
Endpoint Value: 0.83

Compound: CS(=O)(=O)N(CC(=O)Nc1ccccc1)c1ccccc1Cl
Measured Parameter: log10 EC50
Endpoint Value: -1.15

Compound: CCC(C(=O)Nc1cccc(Cl)c1)N(c1ccccc1Cl)S(C)(=O)=O (racemic)
Measured Parameter: log10 EC50
Endpoint Value: 0.52

Any idea what its log10 EC50 is? The compound is O=S(=O)(c1ccc(F)cc1)N1CCC[C@H](c2nc(-c3ccc(F)cc3)no2)C1
0.53

----------
target: Metabotropic glutamate receptor 5 (Rattus norvegicus); assay: Displacement of [3H]-methoxyPEPy from rat mGlu5 receptor expressed in HEK293 cells after 1 hr by scintillation counting analysis; assay type: cell-based
Measured Parameter: Ki

// known answers, use as guide
Compound Structure: CS(=O)(=O)N(CC(=O)Nc1ccccc1)c1ccccc1Cl
Ki: > 10 µM

Compound Structure: CS(=O)(=O)N(CC(=O)Nc1cccc(Cl)c1)c1ccccc1Cl
Ki: > 10 µM

What value of measured Ki is listed for CS(=O)(=O)N(CC(=O)NCC1CC1)c1cc(C(F)(F)F)ccc1Cl ?
> 30 µM

----------
// values below are reported Emax
biological target: UniProtKB P41594; assay: Positive allosteric modulation of human mGlu5 receptor expressed in HEK293 cells by fluorescence-based calcium flux assay relative to glutamate; assay type: functional, cell-based
Sequence (P41594 21-1212 limits assumed): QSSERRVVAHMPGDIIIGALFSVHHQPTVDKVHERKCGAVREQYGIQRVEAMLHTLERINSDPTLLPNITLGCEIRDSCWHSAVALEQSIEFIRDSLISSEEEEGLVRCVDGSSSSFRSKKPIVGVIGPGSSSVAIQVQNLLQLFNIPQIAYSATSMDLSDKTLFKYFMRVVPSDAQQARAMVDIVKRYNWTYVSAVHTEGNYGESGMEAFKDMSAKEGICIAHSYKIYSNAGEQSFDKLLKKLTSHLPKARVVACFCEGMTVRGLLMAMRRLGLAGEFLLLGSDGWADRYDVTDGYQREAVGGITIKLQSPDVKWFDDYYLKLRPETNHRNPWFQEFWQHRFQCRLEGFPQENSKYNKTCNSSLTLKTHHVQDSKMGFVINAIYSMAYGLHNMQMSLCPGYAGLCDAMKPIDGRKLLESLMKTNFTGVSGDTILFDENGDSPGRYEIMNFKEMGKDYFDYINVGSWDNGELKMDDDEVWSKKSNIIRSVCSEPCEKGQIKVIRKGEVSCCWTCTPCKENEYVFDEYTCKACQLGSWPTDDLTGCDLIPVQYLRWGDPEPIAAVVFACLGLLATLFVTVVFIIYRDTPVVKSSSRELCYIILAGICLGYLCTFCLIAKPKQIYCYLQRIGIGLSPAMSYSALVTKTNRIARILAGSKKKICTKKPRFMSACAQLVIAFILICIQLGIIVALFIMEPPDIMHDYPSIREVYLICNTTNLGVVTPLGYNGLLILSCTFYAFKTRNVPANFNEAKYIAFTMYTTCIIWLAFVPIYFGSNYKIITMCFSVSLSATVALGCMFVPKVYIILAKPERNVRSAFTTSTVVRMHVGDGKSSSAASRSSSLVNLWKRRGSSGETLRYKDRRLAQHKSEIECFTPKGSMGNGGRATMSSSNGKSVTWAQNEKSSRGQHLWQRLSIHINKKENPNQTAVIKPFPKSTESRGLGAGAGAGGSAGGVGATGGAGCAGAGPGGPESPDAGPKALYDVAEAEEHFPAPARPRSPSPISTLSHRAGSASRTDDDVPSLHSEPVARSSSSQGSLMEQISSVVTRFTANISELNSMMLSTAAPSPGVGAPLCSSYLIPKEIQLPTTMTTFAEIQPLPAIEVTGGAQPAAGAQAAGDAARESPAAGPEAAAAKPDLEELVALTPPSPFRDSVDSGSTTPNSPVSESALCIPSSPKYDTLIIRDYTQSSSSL
Note: a bare number is incomplete; add the unit.

If you can, please state the reported Emax value of CS(=O)(=O)N(CC(=O)Nc1ccc(F)nc1)c1ccccc1Cl .
35%

Fill blank: measured Emax of the molecule O=S(=O)(c1ccc(F)cc1)N1CCC[C@H](c2nc(-c3ccc(F)cc3)no2)C1 is ____.
43%

Request the reported Emax associated with CS(=O)(=O)N(CC(=O)NCC1CC1)c1cc(C(F)(F)F)ccc1Cl
70%

Give the measured Emax of CS(=O)(=O)N(CC(=O)Nc1cccc(Cl)c1)c1ccccc1Cl .
63%

Using the record for CS(=O)(=O)N(CC(=O)Nc1ccccc1)c1ccccc1Cl , report its Emax.
77%

So what does the record say about Emax for CS(=O)(=O)N(CC(=O)Nc1cccnc1F)c1ccccc1Cl ?
42%

----------
# pEC50 annotations
biological target: Metabotropic glutamate receptor 5 (Homo sapiens, UniProt P41594); assay: Positive allosteric modulation of human mGlu5 receptor expressed in HEK293 cells by fluorescence-based calcium flux assay; assay type: functional, cell-based; conditions: read-out: EC50
Sequence (P41594 whole entry): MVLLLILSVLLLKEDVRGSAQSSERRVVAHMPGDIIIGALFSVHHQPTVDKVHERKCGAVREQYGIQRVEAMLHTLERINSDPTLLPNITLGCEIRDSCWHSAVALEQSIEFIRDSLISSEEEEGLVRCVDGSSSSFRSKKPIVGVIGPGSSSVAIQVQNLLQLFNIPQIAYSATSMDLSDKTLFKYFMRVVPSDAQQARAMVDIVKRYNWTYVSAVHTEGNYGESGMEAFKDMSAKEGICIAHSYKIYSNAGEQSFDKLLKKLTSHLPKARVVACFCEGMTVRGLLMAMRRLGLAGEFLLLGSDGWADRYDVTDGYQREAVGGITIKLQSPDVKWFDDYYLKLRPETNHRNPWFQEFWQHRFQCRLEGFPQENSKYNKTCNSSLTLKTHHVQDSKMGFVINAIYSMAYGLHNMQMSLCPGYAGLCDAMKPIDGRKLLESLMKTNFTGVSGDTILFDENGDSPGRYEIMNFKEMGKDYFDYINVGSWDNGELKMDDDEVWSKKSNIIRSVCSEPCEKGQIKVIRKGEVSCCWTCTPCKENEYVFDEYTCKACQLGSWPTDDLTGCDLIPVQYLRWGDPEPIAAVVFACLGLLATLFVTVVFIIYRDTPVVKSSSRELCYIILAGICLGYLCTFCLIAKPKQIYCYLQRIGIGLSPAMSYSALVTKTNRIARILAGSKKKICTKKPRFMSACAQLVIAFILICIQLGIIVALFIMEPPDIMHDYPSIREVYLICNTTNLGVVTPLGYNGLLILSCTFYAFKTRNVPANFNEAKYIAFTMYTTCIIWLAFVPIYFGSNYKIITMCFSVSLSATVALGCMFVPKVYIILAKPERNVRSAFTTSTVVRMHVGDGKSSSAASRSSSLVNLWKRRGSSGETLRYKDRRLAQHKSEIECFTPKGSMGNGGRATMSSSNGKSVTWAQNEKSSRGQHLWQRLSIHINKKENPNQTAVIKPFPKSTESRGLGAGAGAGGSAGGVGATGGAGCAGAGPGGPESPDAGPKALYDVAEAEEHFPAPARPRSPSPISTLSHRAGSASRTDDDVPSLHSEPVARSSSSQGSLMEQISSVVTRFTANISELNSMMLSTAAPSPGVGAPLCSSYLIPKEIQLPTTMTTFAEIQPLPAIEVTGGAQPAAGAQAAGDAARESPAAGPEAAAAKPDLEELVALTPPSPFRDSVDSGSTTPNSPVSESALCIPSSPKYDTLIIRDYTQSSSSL
Formally, pEC50 is defined as -log10 of the concentration c, with c in mol/L.

Compound Structure: CS(=O)(=O)N(CC(=O)NCC1CC1)c1cc(C(F)(F)F)ccc1Cl
pEC50: 5.35

Compound Structure: CS(=O)(=O)N(CC(=O)Nc1ccccc1)c1ccccc1Cl
pEC50: 5.86

Okay, now this compound:
I'd like to know its pEC50. The compound in question is CS(=O)(=O)N(CC(=O)Nc1cccc(Cl)c1)c1ccccc1Cl
6.11

----------
target: Voltage-gated inwardly rectifying potassium channel KCNH2 (Homo sapiens)
Sequence (Q12809 whole entry): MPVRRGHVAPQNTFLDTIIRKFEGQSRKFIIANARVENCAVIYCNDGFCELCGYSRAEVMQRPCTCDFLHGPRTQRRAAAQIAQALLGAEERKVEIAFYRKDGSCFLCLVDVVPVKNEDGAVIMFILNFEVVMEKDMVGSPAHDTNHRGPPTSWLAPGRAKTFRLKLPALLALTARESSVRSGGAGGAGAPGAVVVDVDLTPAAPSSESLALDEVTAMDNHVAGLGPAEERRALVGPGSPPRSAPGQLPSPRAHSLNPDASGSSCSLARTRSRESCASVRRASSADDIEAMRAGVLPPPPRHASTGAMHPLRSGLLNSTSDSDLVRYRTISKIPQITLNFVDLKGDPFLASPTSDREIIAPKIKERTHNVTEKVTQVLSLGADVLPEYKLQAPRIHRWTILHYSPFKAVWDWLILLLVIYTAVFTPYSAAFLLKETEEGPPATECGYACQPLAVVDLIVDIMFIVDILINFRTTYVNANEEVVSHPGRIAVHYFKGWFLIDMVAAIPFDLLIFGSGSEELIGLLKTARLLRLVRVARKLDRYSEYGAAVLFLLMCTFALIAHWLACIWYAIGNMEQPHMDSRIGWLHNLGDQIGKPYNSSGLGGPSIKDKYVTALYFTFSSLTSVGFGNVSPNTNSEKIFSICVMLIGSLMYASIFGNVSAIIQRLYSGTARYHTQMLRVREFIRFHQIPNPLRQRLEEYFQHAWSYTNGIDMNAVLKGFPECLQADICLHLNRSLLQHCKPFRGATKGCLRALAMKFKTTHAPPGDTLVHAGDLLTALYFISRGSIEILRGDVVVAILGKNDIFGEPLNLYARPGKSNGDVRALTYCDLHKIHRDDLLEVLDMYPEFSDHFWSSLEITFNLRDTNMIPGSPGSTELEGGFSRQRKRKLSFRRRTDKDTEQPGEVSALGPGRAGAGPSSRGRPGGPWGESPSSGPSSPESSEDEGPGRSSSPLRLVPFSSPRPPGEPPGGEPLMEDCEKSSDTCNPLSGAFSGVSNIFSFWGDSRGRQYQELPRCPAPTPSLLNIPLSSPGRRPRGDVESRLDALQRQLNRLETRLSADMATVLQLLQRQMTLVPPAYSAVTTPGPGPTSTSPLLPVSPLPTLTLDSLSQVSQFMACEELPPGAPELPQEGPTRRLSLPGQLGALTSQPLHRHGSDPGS
pIC50: −log10 of the molar value.
Measured Parameter: pIC50

Find the measured pIC50: item CS(=O)(=O)N(CC(=O)NCC1CC1)c1cc(C(F)(F)F)ccc1Cl , target or system Voltage-gated inwardly rectifying potassium channel KCNH2 (Homo sapiens).
< 5.00

----------
assay: Inhibition of calcium channel
pIC50: −log10 of the molar value.
Measured Parameter: pIC50

Can you share its pIC50? I mean this compound: CS(=O)(=O)N(CC(=O)NCC1CC1)c1cc(C(F)(F)F)ccc1Cl
< 5.00

----------
assay: Fraction unbound in rat plasma at 5 uM after 4 hrs by equilibrium dialysis method; assay type: ADME, cell-free
Measured Parameter: fraction unbound at 4 h, 5 µM

// fraction unbound at 4 h, 5 µM lookup, key: CS(=O)(=O)N(CC(=O)NCC1CC1)c1cc(C(F)(F)F)ccc1Cl
0.13

----------
molecular target: Metabotropic glutamate receptor 5 (Rattus norvegicus); assay: Ago-positive allosteric modulation of rat mGlu5 receptor expressed in HEK293 cells by fluorescence-based calcium flux assay relative to glutamate; assay type: functional, cell-based
Emax reference
Report only the number, with the unit % understood.

Compound: CS(=O)(=O)N(CC(=O)Nc1cccnc1F)c1ccccc1Cl
Tested On: Metabotropic glutamate receptor 5 (Rattus norvegicus)
Endpoint Value: 64

Emax lookup needed for CS(=O)(=O)N(CC(=O)NCC1CC1)c1cc(C(F)(F)F)ccc1Cl , thanks.
61

Would you kindly share the measured Emax for CS(=O)(=O)N1c2ccccc2CCC1C(=O)Nc1cccc(Cl)c1 (racemic) ?
60

Looking for the measured Emax of CS(=O)(=O)N1c2ccccc2CCC1C(=O)Nc1ccccn1 (racemic) , can you help?
68

Emax for O=S(=O)(c1ccc(C#Cc2cccc(F)c2)cc1)N1CCOCC1 ?
55

Look up Emax: O=C(Nc1cccc(Cl)c1)[C@@H]1CCc2ccccc2N1S(=O)(=O)c1ccccc1F
78

Fill in the blank: the reported Emax of CS(=O)(=O)N(CC(=O)Nc1ccc(F)nc1)c1ccccc1Cl is ____.
72

Reported Emax for CS(=O)(=O)N(CC(=O)Nc1ccccc1)c1ccccc1Cl : what is it?
61

Look up Emax for this compound: CCS(=O)(=O)N1c2ccccc2CC[C@H]1C(=O)Nc1cccc(Cl)c1
74

----------
target: Metabotropic glutamate receptor 5 (Homo sapiens, UniProt P41594); assay: Positive allosteric modulation of human mGlu5 receptor expressed in HEK293 cells by fluorescence-based calcium flux assay; type: functional, cell-based; settings: read-out: EC50
# Lookup of reported EC50 keyed by entry

Before answering, review these 2 worked examples.
Compound Structure: O=S(=O)(c1ccc(F)cc1)N1CCC[C@H](c2nc(-c3ccc(F)cc3)no2)C1
EC50: > 10 µM
--
Compound Structure: CS(=O)(=O)N(CC(=O)Nc1ccc(F)nc1)c1ccccc1Cl
EC50: > 10 µM

# context switch: different compound, same EC50
Consider the compound shown here: CS(=O)(=O)N(CC(=O)Nc1cccnc1F)c1ccccc1Cl What is its recorded EC50?
> 10 µM
